Entries and their self-cleavage kobs at 10000 uM GlcN6P
B1: glmS ribozyme (parent)
chain: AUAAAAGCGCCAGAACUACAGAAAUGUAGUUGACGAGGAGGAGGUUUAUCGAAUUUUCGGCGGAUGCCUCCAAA

Variants of: B1
RUN DESCRIPTION: self-cleavage kobs at 10000 uM GlcN6P; higher = faster cleavage; RNA array
MEASUREMENT SETUP: with glucosamine-6-phosphate
This sample holds only a part of the variants without activity.

Some variants with recorded self-cleavage kobs at 10000 uM GlcN6P:
G32U G43U U69C	< 1e-05 s⁻¹
U46G U49C	< 1e-05 s⁻¹
A14C A36C A52U	< 1e-05 s⁻¹

QUERY: Looking for the measured self-cleavage kobs at 10000 uM GlcN6P of U56C A64C U65A , can you help?
RESULT: < 1e-05 s⁻¹
